Quick record of pKi values for Beta-lactamase II (Bacillus anthracis).
Please keep in mind that pKi is minus log10 of the molar concentration; only the number is needed.

Look up pKi: `C[C@H](CS)C(=O)N1CCC[C@H]1C(=O)O`
4.75

The record that follows has no pKi shown yet.
Look up pKi: `Nc1cccc(C2=N[C@H](C(=O)O)CS2)c1`
5.29

###

pIC50: −log10 of the molar value.
Quick record of pIC50 values for Beta-lactamase (Pseudomonas aeruginosa).

A selection of reference data follows.
Provide the documented pIC50 with Beta-lactamase (Pseudomonas aeruginosa) as the system for `O=C(Cc1ccccc1)NCC1=N[C@H](C(=O)O)CS1`
Sequence (Q79MP6 whole entry): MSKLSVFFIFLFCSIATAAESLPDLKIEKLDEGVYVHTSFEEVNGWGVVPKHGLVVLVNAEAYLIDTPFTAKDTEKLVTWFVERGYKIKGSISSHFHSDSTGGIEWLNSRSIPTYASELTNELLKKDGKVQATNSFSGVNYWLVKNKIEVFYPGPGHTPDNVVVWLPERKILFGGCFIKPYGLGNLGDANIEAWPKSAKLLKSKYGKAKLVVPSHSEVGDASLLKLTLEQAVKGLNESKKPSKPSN
< 3.70

Provide the documented pIC50 with Beta-lactamase (Pseudomonas aeruginosa) as the system for `O=C(NCC1=N[C@H](C(=O)O)CS1)OCc1ccccc1`
< 3.70

Provide the documented pIC50 with Beta-lactamase (Pseudomonas aeruginosa) as the system for O=C(O)[C@@H]1CSC(c2ccccc2)N1 (some centres undefined)
< 3.70

Provide the documented pIC50 with Beta-lactamase (Pseudomonas aeruginosa) as the system for `O=C(O)[C@@H]1CSC(Cc2ccccc2)=N1`
< 3.70

Provide the documented pIC50 with Beta-lactamase (Pseudomonas aeruginosa) as the system for `Nc1cccc(C2=N[C@H](C(=O)O)CS2)c1`
4.11

Others:
Provide the documented pIC50 with Beta-lactamase (Pseudomonas aeruginosa) as the system for `O=C(O)[C@@H]1CSC(c2ccc(Cl)cc2)=N1`
< 3.70

###

biological target: Beta-lactamase II (Bacillus anthracis)
REPORTED_ENDPOINT: pIC50
Please keep in mind that pIC50 is minus log10 of the molar concentration; only the number is needed.

Look up pIC50: `O=C(O)CN(CCN(CC(=O)O)CC(=O)O)CC(=O)O`
2.97

###

Quick record of IC50 values for Beta-lactamase II (Bacillus anthracis, UniProt Q93T40).

Provide the documented IC50 with Beta-lactamase II (Bacillus anthracis, UniProt Q93T40) as the system for `O=C(O)[C@@H]1CSC(c2ccc(Br)cc2)=N1`
Sequence (Q93T40 whole entry): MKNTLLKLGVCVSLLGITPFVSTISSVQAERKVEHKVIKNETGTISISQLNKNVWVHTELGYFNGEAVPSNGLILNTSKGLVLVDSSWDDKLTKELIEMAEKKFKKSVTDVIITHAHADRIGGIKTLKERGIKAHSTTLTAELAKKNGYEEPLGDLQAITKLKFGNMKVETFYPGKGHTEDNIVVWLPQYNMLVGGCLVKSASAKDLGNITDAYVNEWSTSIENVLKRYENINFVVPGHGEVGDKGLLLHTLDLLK
> 200 µM

Provide the documented IC50 with Beta-lactamase II (Bacillus anthracis, UniProt Q93T40) as the system for `CC(=O)Nc1cccc(C2=N[C@H](C(=O)O)CS2)c1`
> 200 µM

Provide the documented IC50 with Beta-lactamase II (Bacillus anthracis, UniProt Q93T40) as the system for O=C(O)[C@@H]1CSC(c2ccccc2)N1 (stereo partly specified)
> 200 µM

Provide the documented IC50 with Beta-lactamase II (Bacillus anthracis, UniProt Q93T40) as the system for `Nc1cccc(C2=N[C@H](C(=O)O)CS2)c1`
4.9 µM

Provide the documented IC50 with Beta-lactamase II (Bacillus anthracis, UniProt Q93T40) as the system for `CC(C)(C)OC(=O)Nc1cccc(C2=N[C@H](C(=O)O)CS2)c1`
74.1 µM

Provide the documented IC50 with Beta-lactamase II (Bacillus anthracis, UniProt Q93T40) as the system for `C[C@H](CS)C(=O)N1CCC[C@H]1C(=O)O`
25.8 µM

Provide the documented IC50 with Beta-lactamase II (Bacillus anthracis, UniProt Q93T40) as the system for O=C(O)[C@@H]1CSC(Cc2ccccc2)N1 (stereo partly specified)
> 200 µM

Provide the documented IC50 with Beta-lactamase II (Bacillus anthracis, UniProt Q93T40) as the system for `O=C(O)[C@@H]1CSC(Cc2ccccc2)=N1`
> 200 µM

Provide the documented IC50 with Beta-lactamase II (Bacillus anthracis, UniProt Q93T40) as the system for `CC(C)(C)OC(=O)NCC1=N[C@H](C(=O)O)CS1`
> 200 µM

Provide the documented IC50 with Beta-lactamase II (Bacillus anthracis, UniProt Q93T40) as the system for `O=C(Cc1ccccc1)NCC1=N[C@H](C(=O)O)CS1`
> 200 µM

Others:
Provide the documented IC50 with Beta-lactamase II (Bacillus anthracis, UniProt Q93T40) as the system for `COc1cccc(CC(=O)NCC2=N[C@H](C(=O)O)CS2)c1`
> 200 µM

Provide the documented IC50 with Beta-lactamase II (Bacillus anthracis, UniProt Q93T40) as the system for `O=C(O)[C@@H]1CSC(c2ccc(Cl)cc2)=N1`
> 200 µM

Provide the documented IC50 with Beta-lactamase II (Bacillus anthracis, UniProt Q93T40) as the system for `O=C(O)[C@@H]1CSC(c2ccccc2O)=N1`
> 200 µM

Provide the documented IC50 with Beta-lactamase II (Bacillus anthracis, UniProt Q93T40) as the system for `O=C(O)c1csc(-c2ccccc2)n1`
> 200 µM

Provide the documented IC50 with Beta-lactamase II (Bacillus anthracis, UniProt Q93T40) as the system for `O=C(NCC1=N[C@H](C(=O)O)CS1)OCc1ccccc1`
> 200 µM

Provide the documented IC50 with Beta-lactamase II (Bacillus anthracis, UniProt Q93T40) as the system for `O=C(O)c1csc(Cc2ccccc2)n1`
> 200 µM
